Numbers sourced from PubChem BioAssay (NCI).

test system: HOP-62 NSCLC; experiment: NCI-60 one-dose screen, 48 h (100 = growth as untreated, 0 = no growth, -100 = all killed); details: 10 µM unless noted
Compounds without any hit were thinned out: in the full panel of roughly 83,000, 20% have a hit.
Hi, to clarify the labels: 1 covers growth from 80% upward, -1 covers anything below 80%.

{"columns": ["compound", "tgt", "assigned-category"],
 "data": [
  ["CCN(CC)CCCC(C)Nc1ccnc2c(OC)cccc12 (stereo not given)", "HOP-62 NSCLC", 1],
  ["Cc1nn(-c2nc3ccccc3[nH]2)c2c1C(c1ccc3c(c1)OCO3)CC(=O)N2 (stereo not given)", "HOP-62 NSCLC", -1],
  ["NCCN1CCN(c2nccc(-c3ccc4ccccc4c3)n2)CC1", "HOP-62 NSCLC", -1],
  ["C=C1C(=O)O[C@H]2[C@H]1CC/C(Cn1cc(Cn3ccc4cc(Cl)ccc43)nn1)=C\\CC[C@@]1(C)O[C@@H]21", "HOP-62 NSCLC", -1]
]}
